# Target or test system: human URAT1 (Homo sapiens, UniProt Q96S37)
# Construct: Human URAT1 full length cDNA was subcloned to expression vector pcDNA3.1; expressed in transfected cells; host or cells: HEK293 cells (pcDNA3.1, geneticin-selected)
# Sequence (Q96S37 whole entry): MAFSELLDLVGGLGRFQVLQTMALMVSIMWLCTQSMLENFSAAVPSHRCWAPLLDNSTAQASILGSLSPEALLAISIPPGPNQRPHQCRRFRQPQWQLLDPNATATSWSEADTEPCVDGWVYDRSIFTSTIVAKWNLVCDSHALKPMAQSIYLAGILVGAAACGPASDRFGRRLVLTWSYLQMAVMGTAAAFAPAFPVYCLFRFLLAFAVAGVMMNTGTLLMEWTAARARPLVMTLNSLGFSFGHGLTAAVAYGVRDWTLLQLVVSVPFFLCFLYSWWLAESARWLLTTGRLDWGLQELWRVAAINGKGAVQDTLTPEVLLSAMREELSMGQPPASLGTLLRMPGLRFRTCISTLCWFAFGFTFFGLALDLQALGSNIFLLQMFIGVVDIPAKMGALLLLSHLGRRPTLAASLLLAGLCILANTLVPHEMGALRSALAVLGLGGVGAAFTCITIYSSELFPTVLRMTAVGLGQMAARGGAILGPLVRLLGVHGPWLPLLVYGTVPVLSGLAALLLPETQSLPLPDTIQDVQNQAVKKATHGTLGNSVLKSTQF
# Assay summary: Uric acid transport inhibitory test using human URAT1-expressing cells
# Assay type: cell-based
# Test context: human URAT1 expressing HEK293 cells, uptake of 14C-labeled uric acid for 5 min, room temperature; read-out: hURAT1 (IC50, concentration necessary for inhibiting the uric acid transport rate by 50%)
pIC50: −log10 of the molar value.
Readout: pIC50

O=C(c1cc([N+](=O)[O-])c(O)c([N+](=O)[O-])c1)N1CCOc2ccccc21: 6.00 to 7.00
O=C(c1cc(Cl)c(O)c(Cl)c1)N1CCOc2ccc3ccccc3c21: > 7.00
O=C(c1cc(Cl)c(O)c(Cl)c1)N1CCOc2cc([N+](=O)[O-])ccc21: 6.00 to 7.00
CN1CCN(C(=O)c2cc(Cl)c(O)c(Cl)c2)c2ccccc21: 6.00 to 7.00
Nc1ccc2c(c1)CCN2C(=O)c1cc(Cl)c(O)c(Cl)c1: 6.00 to 7.00

Input O=C(c1cc(Cl)c(O)c(Cl)c1)N1CCSc2ccccc21 . Output pIC50: 6.00 to 7.00

Input O=C(c1cc(Cl)c(O)c(Cl)c1)N1CCCc2ccccc21 . Output pIC50: 6.00 to 7.00

Input COC(=O)c1cccc2c1OCCN2C(=O)c1cc(Cl)c(O)c(Cl)c1 . Output pIC50: 5.52 to 6.00

Input O=C(c1cc(Cl)c(O)c(Cl)c1)N1CCOc2ccc(Cl)cc21 . Output pIC50: > 7.00

Input Cc1ccc2c(c1)OCCN2C(=O)c1cc(Cl)c(O)c(Cl)c1 . Output pIC50: 6.00 to 7.00

Input Cc1cc(C)c2c(c1)N(C(=O)c1cc(Cl)c(O)c(Cl)c1)CCO2 . Output pIC50: 6.00 to 7.00

Input O=C(c1cc(Cl)c(O)c(Cl)c1)N1CCS(=O)(=O)c2ccccc21 . Output pIC50: 6.00 to 7.00

----------
# Target or test system: human URAT1 (Homo sapiens)
# Construct: Human URAT1 full length cDNA was subcloned to expression vector pcDNA3.1; expressed in transfected cells; host or cells: HEK293 cells (pcDNA3.1, geneticin-selected)
# Assay summary: Uric acid transport inhibitory test using human URAT1-expressing cells
# Format: cell-based
# Test context: human URAT1 expressing HEK293 cells, uptake of 14C-labeled uric acid for 5 min, room temperature; read-out: hURAT1 (IC50, concentration necessary for inhibiting the uric acid transport rate by 50%)
pIC50: −log10 of the molar value.
Readout: pIC50

Sample answers from the record:
O=C(c1cc(Cl)c(O)c(Cl)c1)N1CCOc2ccc(O)cc21 [Example 19]: 6.00 to 7.00
O=C(c1cc(Br)c(O)c(Br)c1)N1CCOc2ccccc21 [Example 4]: > 7.00
Cc1ccc2c(c1)N(C(=O)c1cc(Br)c(O)c(Br)c1)CCO2 [Example 81]: > 7.00

# lookup: O=C(c1cc(Cl)c(O)c(Cl)c1)N1CCCOc2ccccc21 [Example 95] on human URAT1 (Homo sapiens), pIC50 = 6.00 to 7.00

# lookup: O=C(c1ccc(Cl)c(O)c1)N1CCOc2ccccc21 [Example 41] on human URAT1 (Homo sapiens), pIC50 = 6.00 to 7.00

# lookup: COc1ccc2c(c1)OCCN2C(=O)c1cc(Cl)c(O)c(Cl)c1 [Example 18] on human URAT1 (Homo sapiens), pIC50 = 6.00 to 7.00

# lookup: O=C(c1cc(Cl)c(O)c([N+](=O)[O-])c1)N1CCOc2ccccc21 [Example 31] on human URAT1 (Homo sapiens), pIC50 = > 7.00

# lookup: O=C(c1cc(Cl)c(O)c(Cl)c1O)N1CCOc2ccccc21 [Example 50] on human URAT1 (Homo sapiens), pIC50 = 6.00 to 7.00
